Assay overview: Solubility of compound having Formula V in various media
Type: physicochemical
Conditions used: aqueous with cosolvent or surfactant or cyclodextrin; Medium: 25% PEG-40/1% polysorbate 80 (a composition of the present invention)
Assay metric: solubility (µg/mL)
Give the value in µg/mL but do not write µg/mL after it.

Exercise: Supply recorded solubility for Cc1ccc2c(NCC(O)(CC(C)(C)c3cc(F)cc4c3OCC4)C(F)(F)F)cccc2n1 (stereo not shown) here.
Solution: 18

----------
Assay overview: Solubility of compound having Formula V in various media
Assay type: physicochemical
Conditions used: organic solvent or mixture; Medium: PEG-400
Assay metric: solubility

Exercise: Supply recorded solubility for Cc1ccc2c(NCC(O)(CC(C)(C)c3cc(F)cc4c3OCC4)C(F)(F)F)cccc2n1 (stereo not shown) [Compound Having Formula V] here.
Solution: 5.6 µg/mL
